Tested on: wheat
Assay: Test B postemergence herbicide test
Assay type: in vivo, Triticum aestivum
Set-up: key: 0 = no effect, 100 = complete control
Details: postemergence, 500 g ai/ha; scale 0 to 100, 0 is no effect, 100 is complete control
metric: Wheat plant response rating
Format: numeric value only, no unit, no commentary.

Task: Identify the reported Wheat plant response rating for the following entry. CCN1N=C(C(C)(C)C)CC1C(=O)Nc1cc(C(=O)N2CCCCC2)ccc1F (racemic) [Compound 331]
Result: 20

Task: Identify the reported Wheat plant response rating for the following entry. CCn1nc(C(C)(C)C)cc1C(=O)Nc1cc(C(N)=O)ccc1F [Compound 271]
Result: 30

Task: Identify the reported Wheat plant response rating for the following entry. CCn1nc(C(C)(C)C)cc1C(=O)Nc1nc(C(=O)N(C)C)ccc1F [Compound 277]
Result: 20

Task: Identify the reported Wheat plant response rating for the following entry. CCn1nc(C(C)(C)C)cc1C(=O)Nc1cc(C(=O)OC(C)C)c(F)cc1F [Compound 248]
Result: 40
